Values were extracted from patent US6281214A.

Biological target: adrenergic α1 receptor
Test: adrenergic α1 receptor binding test ([3H] Prazosin Binding Test)
Set-up: species or system SD rats
Details: 1 nM [3H] Prazosin, rat cortex, room temperature, 60 minutes
I'd appreciate it if you could supply pKi values for the items below.
For clarity, pKi is expressed as the negative log10 of concentration in mol/L.

Recorded pKi of CCC(F)c1cc(N2CCN(CC)CC2)cc(-c2ccc(F)cc2C)c1Cl (stereo not drawn) , please. 6.19

Field entry: `CC[C@@H](F)c1cc(N2CCN(CCO)CC2)cc(-c2ccc(F)cc2C)c1Cl` 5.82

Could you do the same for CCC(F)c1cc(N2CCN(CC)CC2)cc(-c2ccccc2C#N)c1Cl (stereo not drawn) , please? 6.38

Here is the next molecule: `CCN1CCN(c2cc(CO)c(OC)c(-c3ccccc3)c2)CC1` 6.28

Follow-up item: `CCN1CCN(c2cc(NS(=O)(=O)CC(F)(F)F)c(Cl)c(-c3ccccc3C)c2)CC1` 6.33

What about this molecule? CCC(F)c1cc(N2CCN(CC)CC2)cc(-c2ccc(F)cc2F)c1Cl (stereo not drawn) 7.17

Cool, now CCC(F)c1cc(N2CCN(C)CC2)cc(-c2ccccc2)c1Cl (stereo not drawn) 7.32

Now the same for `CCCCS(=O)(=O)Nc1cc(N2CCN(CC)CC2)cc(-c2ccccc2C)c1Cl` 7.09

Let us now turn to `CCN1CCN(c2cc(CCC(C)=O)c(OC)c(-c3ccccc3)c2)CC1` 6.24

###

UniProt:P14842: recorded pKi for assorted compounds
// pKi here means minus log10 of the molar concentration (mol/L)

What does the data say about its pKi? Entry: CCCS(=O)(=O)Nc1cc(N2CCN(CC)CC2)cc(-c2ccccc2)c1Cl [Example 184] 8.68

Follow-up item: CCN1CCN(c2cc(C(=O)CC3CC3)c(OC)c(-c3ccccc3)c2)CC1 [Example 108] 8.40

Next record, please: CCN1CCN(c2cc(-c3ccccc3)c(F)c(S(=O)(=O)CC)c2)CC1 [Example 149] 7.94

Likewise for CCC(F)c1cc(N2CCN(CC)CC2)cc(-c2ccc(F)cc2Cl)c1Cl (stereo not drawn) [Example 156] ? 7.54

Can you check CCN1CCN(c2cc(CCCC#N)c(OC)c(-c3ccccc3)c2)CC1 [Example 71] next? 7.04

What would you report for CCS(=O)(=O)Nc1cc(N2CCN(C)CC2)cc(-c2ccccc2Cl)c1Cl [Example 34] ? 8.11

Next entry: CCN1CCN(c2cc(COCC3CC3)c(Cl)c(-c3ccccc3C)c2)CC1 [Example 176] 6.75

Similarly, CCN1CCN(c2cc(-c3ccccc3)c(OC)c(C(C)(C)F)c2)CC1 [Example 86] ? 7.53

Moving on to CCN1CCN(c2cc(NS(=O)(=O)CC(F)(F)F)c(Cl)c(-c3ccccc3C)c2)CC1 [Example 136] 7.05

###

Molecular target: serotonin S2 receptor (Rattus norvegicus, UniProt P14842)
Construct: The receptor fraction prepared from the cortex was molten and suspended; from tissue; host or cells: cerebral cortex of SD rats (membrane fraction)
Sequence (P14842 whole entry): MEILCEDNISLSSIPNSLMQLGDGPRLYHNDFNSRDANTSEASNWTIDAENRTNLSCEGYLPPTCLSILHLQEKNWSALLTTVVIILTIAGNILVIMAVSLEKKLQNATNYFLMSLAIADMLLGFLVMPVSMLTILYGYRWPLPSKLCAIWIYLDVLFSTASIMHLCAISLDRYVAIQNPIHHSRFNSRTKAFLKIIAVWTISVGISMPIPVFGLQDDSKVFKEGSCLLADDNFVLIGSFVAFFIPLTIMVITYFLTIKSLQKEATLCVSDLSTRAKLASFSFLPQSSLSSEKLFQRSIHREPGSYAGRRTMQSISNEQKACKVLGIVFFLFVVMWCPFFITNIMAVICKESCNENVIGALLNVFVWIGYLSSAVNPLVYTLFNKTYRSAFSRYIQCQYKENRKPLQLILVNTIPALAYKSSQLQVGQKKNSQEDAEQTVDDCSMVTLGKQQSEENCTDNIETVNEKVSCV
Assay: serotonin S2 receptor binding test ([3H] Ketanserin Binding Test)
Parameters: species or system SD rats
Conditions: 1 nM [3H] Ketanserin, rat cortex, 37° C., 15 minutes
Assay Metric: Ki

Entry CCN1CCN(c2cc(-c3ccccc3)c(OC(C)C)c(-c3ccccc3)c2)CC1 [Example 60] : reported Ki = ? > 1000 nM

Could you do the same for CCN1CCN(c2cc(CCCOC)c(OC)c(-c3ccccc3)c2)CC1 [Example 68] , please? 32 nM

Check CCN1CCN(c2cc(-c3ccccc3)c(OC)c(-c3ccccn3)c2)CC1 [Example 97] too. 247 nM

Similarly, CCN1CCN(c2cc(N)c(OC)c(-c3ccccc3)c2)CC1 [Example 110] ? > 1000 nM

Continue with CC[C@H](F)c1cc(N2CCN(CCO)CC2)cc(-c2ccc(F)cc2C)c1Cl [Example 222] 12 nM

###

Please go through the items and note down their pKi.
Biological target: adrenergic α1 receptor
Experiment: adrenergic α1 receptor binding test ([3H] Prazosin Binding Test)
Set-up: species or system SD rats
Conditions: 1 nM [3H] Prazosin, rat cortex, room temperature, 60 minutes
Description: The compounds of the present invention were subjected to each of serotonin S2 receptor binding test, dopamine D2 receptor binding test and adrenergic α1 receptor binding test. The following reagents were used in this test. These reagents and samples were each dissolved in 10% ethanol before use. […] Each IC50 value was calculated by the probit method and each Ki value was determined by the following formula: [formula] […]
pKi: −log10 of the molar value.

Field request: pKi | item: `CCN1CCN(c2cc(-c3ccc(F)cc3C)c(Cl)c(S(=O)(=O)NC3CC3)c2)CC1` 6.46

Entry CCC(F)c1cc(N2CCN(CC)CC2)cc(-c2ccccc2C)c1Cl (stereo not drawn) [Example 131] please < 6.00

Another: CCN1CCN(c2cc(-c3ccccc3)c(OC)c(C(C)CO)c2)CC1 (stereo not drawn) < 6.00

What about CCCN1CCN(c2cc(-c3ccccc3C)c(Cl)c(C(F)CC)c2)CC1 (stereo not drawn) ? < 6.00

What about this compound? `CCN1CCN(c2cc(CCF)c(OC)c(-c3ccccc3)c2)CC1` 6.95

Quick one: CCN1CCN(c2cc(-c3ccccc3)c(OC)c(C(F)Cc3ccccc3)c2)CC1 (stereo not drawn) < 6.00

Same question for CCC(O)c1cc(N2CCN(CC)CC2)cc(-c2ccccc2)c1Cl (stereo not drawn) please. 8.03

# iterate: `CCN1CCN(c2cc(N)c(OC)c(-c3ccccc3)c2)CC1` < 6.00

Okay, and CCC(OCc1ccccn1)c1cc(N2CCN(CC)CC2)cc(-c2ccccc2)c1OC (stereo not drawn) ? < 6.00

###

Molecular target: adrenergic α1 receptor
Experiment: adrenergic α1 receptor binding test ([3H] Prazosin Binding Test)
Design: species or system SD rats
Details: 1 nM [3H] Prazosin, rat cortex, room temperature, 60 minutes
Assay Metric: pKi
Please treat pKi as minus the base-10 logarithm of the molar concentration.

Any idea what pKi came out for `CCN1CCN(c2cc(-c3ccccc3C)c(F)c(S(C)(=O)=O)c2)CC1` on adrenergic α1 receptor? 6.07

Then this compound: CCC(F)c1cc(N2CCN(CCc3ccccn3)CC2)cc(-c2ccccc2C#N)c1Cl (stereo not drawn) 7.29

Moving on to `CCS(=O)(=O)Nc1cc(N2CCN(C)CC2)cc(-c2ccccc2C)c1Cl` 7.29

Now the same for `C/C=C/c1cc(N2CCN(CC)CC2)cc(-c2ccccc2)c1OC` 6.07

Then what about the compound `CCN1CCN(c2cc(-c3ccc(F)cc3C)c(Cl)c(S(=O)(=O)CC3CC3)c2)CC1` ? 6.56

Now consider `CCN1CCN(c2cc(NS(=O)(=O)CC)c(Cl)c(-c3ccccc3Cl)c2)CC1` . 7.44

Lookup `CCN1CCN(c2cc(CCO)c(OC)c(-c3ccccc3)c2)CC1` 6.90

Okay, and `CCCS(=O)(=O)c1cc(N2CCN(CC)CC2)cc(-c2ccccc2C)c1Cl` ? 6.22

Same question for CCC(F)c1cc(-c2ccccc2)cc(N2CCN(CC)CC2)c1 (stereo not drawn) please. 7.40

Can you check `CN1CCN(c2cc(NS(=O)(=O)Cc3ccccc3)c(Cl)c(-c3ccccc3Cl)c2)CC1` next? 7.14

Again, but for `CCN1CCN(c2cc(-c3ccccc3)c(O)c(-c3ccccc3)c2)CC1` 6.54

Continue with `CCCc1cc(N2CCN(CC)CC2)cc(-c2ccc(F)cc2F)c1OC` 6.49

What about `CCOC(=O)CCc1cc(N2CCN(CC)CC2)cc(-c2ccccc2)c1OC` ? 6.68

# iterate: `CCN1CCN(c2cc(CCCC#N)c(OC)c(-c3ccccc3)c2)CC1` 6.88

What would you report for `CCN1CCN(c2cc(C(=O)Cc3ccc(F)cc3)c(OC)c(-c3ccccc3)c2)CC1` ? 6.14

And `CCCc1cc(N2CCN(CC)CC2)cc(-c2ccccc2)c1OC` ? 6.52

Same thing, different compound: `CCN1CCN(c2cc(NS(=O)(=O)CC)c(Cl)c(-c3ccccc3C)c2)CC1` 7.27

Now try CCC(F)c1cc(N2CCN(CC)CC2)cc(-c2ccccc2C)c1Cl (stereo not drawn) [Example 27] . 6.34

# iterate: `CCCS(=O)(=O)NCc1cc(N2CCN(CC)CC2)cc(-c2ccccc2C)c1Cl` 6.26

What do we get for `CCN1CCN(c2cc(C(=O)CC3CC3)c(OC)c(-c3ccccc3)c2)CC1` ? 6.39

###

Molecular target: adrenergic α1 receptor
Experiment: adrenergic α1 receptor binding test ([3H] Prazosin Binding Test)
Parameters: species or system SD rats
Settings: 1 nM [3H] Prazosin, rat cortex, room temperature, 60 minutes
Assay Metric: Ki (nM)
The reply should contain only the number, in nM.

GET /values?readout=Ki&system=adrenergic α1 receptor&item= CCN1CCN(c2cc(CCCOC)c(OC)c(-c3ccccc3)c2)CC1 [Example 68] 195

Can you check CCCS(=O)(=O)Nc1cc(N2CCN(CC)CC2)cc(-c2ccccc2C#N)c1Cl [Example 197] next? 31.4

CCC(=O)c1cc(N2CCN(CC)CC2)cc(-c2ccccc2)c1Cl [Example 140] ? 95.5

Request: CCC(F)c1cc(N2CCN(CC)CC2)cc(-c2ccccc2)c1Cl (stereo not drawn) [Example 127] 65.9

And for CCC(=O)c1cc(N2CCN(CC)CC2)cc(-c2ccccc2)c1OC [Example 82] ? 723

Next record, please: CCC(F)c1cc(N2CCN(CC)CC2)cc(-c2ccccc2Cl)c1Cl (stereo not drawn) [Example 24] 537

Again, but for CCN1CCN(c2cc(NS(=O)(=O)CC(F)(F)F)c(Cl)c(-c3ccccc3Cl)c2)CC1 [Example 163] 195

Record: CCCS(=O)(=O)Nc1cc(N2CCN(CC)CC2)cc(-c2ccc(OC)cc2)c1Cl [Example 187] 7.8

Do the same for CN1CCN(c2cc(NS(C)(=O)=O)c(Cl)c(-c3ccccc3Cl)c2)CC1 [Example 188] please 19

// repeat for CCCc1cc(-c2ccccc2)cc(N2CCN(CC)CC2)c1OC [Example 113] and report 28.9

Param item: CCN1CCN(c2cc(NS(=O)(=O)c3ccc(F)cc3)c(Cl)c(-c3ccccc3C)c2)CC1 [Example 137] 312
